tested on: Dengue virus; test: Inhibition of Dengue virus NS2B-NS3 protease expressed in Escherichia coli BL 21 (DE3) using Abz-Nle-Lys-Arg-Arg-Ser-3-(NO2)Tyr as substrate at 50 uM after 15 mins
Result type: inhibition (%)

(P) CCCC[C@H](NC(=O)[C@H](CCCCN)NC(=O)[C@H](CCCNC(=N)N)NC(=O)c1ccc(/C=C2\SC(=O)N(CCCC)C2=O)cc1)C(N)=O
(Q) CCCC[C@H](NC(=O)[C@H](CCCCN)NC(=O)[C@H](CCCNC(=N)N)NC(=O)CC1SC(=S)N(Cc2ccc(OC)cc2)C1=O)C(N)=O (stereo partly specified)
Data request: Between P and Q , whose measured inhibition reads higher? Return value: the label identifying the chosen record.
Data returned: P

* * *

test system: Dengue virus; assay: Inhibition of Dengue virus NS2B-NS3 protease expressed in Escherichia coli BL 21 (DE3) using Abz-Nle-Lys-Arg-Arg-Ser-3-(NO2)Tyr as substrate at 50 uM after 15 mins
Result type: inhibition (%)

Smiles entry: CCCC[C@@H](NC(=O)[C@@H](CCCCN)NC(=O)[C@@H](CCCNC(=N)N)NC(=O)c1ccc(/C=C2\SC(=O)N(Cc3ccccc3)C2=O)cc1)C(N)=O
Tested target: Dengue virus
Observed: 73.9

(a) O=C(O)c1ccc(/C=C2\SC(=O)N(Cc3ccccc3)C2=O)cc1
(b) CCCC[C@H](NC(=O)[C@H](CCCCN)NC(=O)[C@H](CCCNC(=N)N)NC(=O)CN1C(=O)/C(=C/c2ccc(OC)c(OC)c2)SC1=S)C(N)=O
(c) CCCC[C@H](NC(=O)[C@H](CCCCN)NC(=O)[C@H](CCCNC(=N)N)NC(=O)c1cccc(/C=C2\SC(=O)N(C3CCCC3)C2=O)c1)C(N)=O
Data request: List the 3 entries from lowest inhibition to highest inhibition value. A ranking is expressed here by listing the labels in the requested order.
Data returned: a, b, c

* * *

system: Dengue virus; test: Inhibition of Dengue virus NS2B-NS3 protease expressed in Escherichia coli BL 21 (DE3) using Abz-Nle-Lys-Arg-Arg-Ser-3-(NO2)Tyr as substrate at 50 uM after 15 mins
Result type: inhibition (%)

Molecule: CCCC[C@H](NC(=O)[C@H](CCCCN)NC(=O)[C@H](CCCNC(=N)N)NC(=O)c1ccc(/C=C2\SC(=S)N(C)C2=O)cc1)C(N)=O
inhibition, %: 89
//
Molecule: CCCC[C@H](NC(=O)[C@H](CCCCN)NC(=O)[C@H](CCCNC(=N)N)NC(=O)c1ccc(/C=C2\SC(=O)N(C3CCCC3)C2=O)cc1)C(N)=O
inhibition, %: 98.2
//
Molecule: CCCC[C@H](NC(=O)[C@H](CCCCN)NC(=O)[C@H](CCCNC(=N)N)NC(=O)c1ccc(/C=C/C(N)=O)cc1)C(N)=O
inhibition, %: 84.6
//
Molecule: CCCC[C@H](NC(=O)[C@H](CCCCN)NC(=O)[C@H](CCCNC(=N)N)NC(=O)c1ccc(/C=C2\SC(=O)N(c3ccc(C)cc3)C2=O)cc1)C(N)=O
inhibition, %: 93.8
//
Molecule: CCCC[C@H](NC(=O)[C@H](CCCCN)NC(=O)[C@H](CCCNC(=N)N)NC(=O)c1ccc(/C=C2\SC(=O)N(Cc3ccc(Cl)cc3)C2=O)cc1)C(N)=O
inhibition, %: 99.4
//
Molecule: CCCC[C@H](NC(=O)[C@H](CCCCN)NC(=O)[C@H](CCCNC(=N)N)NC(=O)c1ccc(/C=C2\NC(=S)N(c3ccccc3)C2=O)cc1)C(N)=O
inhibition, %: 85.2
//
Molecule: CCCC[C@H](NC(=O)[C@H](CCCCN)NC(=O)[C@H](CCCNC(=N)N)NC(=O)c1cccs1)C(N)=O
inhibition, %: 71.1
//
Molecule: CCCC[C@H](NC(=O)[C@H](CCCCN)NC(=O)[C@H](CCCNC(=N)N)NC(=O)c1ccc(/C=C2\SC(=O)N(Cc3ccc(OC)cc3)C2=O)cc1)C(N)=O
inhibition, %: 97

(1) CCCC[C@H](NC(=O)[C@H](CCCCN)NC(=O)[C@H](CCCNC(=N)N)NC(=O)/C=C1\SC(=S)N(Cc2ccc(OC)cc2)C1=O)C(N)=O
(2) CCCC[C@H](NC(=O)[C@H](CCCCN)NC(=O)[C@H](CCCNC(=N)N)NC(=O)c1ccc(/C=C2\SC(=S)N(Cc3ccc(C)cc3)C2=O)cc1)C(N)=O
Data request: Of 1 and 2 , which carries the smaller reported inhibition figure? Return value: the label identifying the chosen record.
Data returned: 1

* * *

molecular target: Prothrombin (Homo sapiens) (UniProt P00734); experiment: Inhibition of thrombin (unknown origin) using Boc-Val-Pro-Arg-AMC as substrate at 25 uM after 10 mins by continuous fluorimetric assay
Square brackets hold non-standard residues; d marks the D form. Peptide text beside a SMILES is read from it. * marks the point of attachment. Nle = CCCC[C@H](N)C(=O)O; Bz = O=C(c1ccccc1)*
Here the recorded inhibition is given for each entry.

Answered cases to consult:
Compound: CCCC[C@H](NC(=O)[C@H](CCCCN)NC(=O)[C@H](CCCNC(=N)N)NC(=O)c1ccc(/C=C2\SC(=O)N(c3ccc(C)cc3)C2=O)cc1)C(N)=O
inhibition: 13.8%
--
Compound: CCCC[C@H](NC(=O)[C@H](CCCNC(=N)N)NC(=O)[C@H](CCCCN)NC(=O)c1ccc(/C=C2\SC(=O)N(Cc3ccccc3)C2=O)cc1)C(N)=O
inhibition: 10.2%
--
Compound: CCCC[C@H](NC(=O)[C@H](CCCCN)NC(=O)[C@H](CCCNC(=N)N)NC(=O)c1ccccc1)C(N)=O (Bz-Arg-Lys-[Nle]-NH2)
inhibition: 5.5%
--
Compound: CCCC[C@H](NC(=O)[C@H](CCCCN)NC(=O)[C@H](CCCNC(=N)N)NC(=O)c1ccc(/C=C2\SC(=O)N(C3CCCCC3)C2=O)cc1)C(N)=O
inhibition: 9.1%
--
Compound: CCCC[C@H](NC(=O)[C@H](CCCCN)NC(=O)[C@H](CCCNC(=N)N)NC(=O)c1ccc(/C=C2\SC(=O)N(Cc3ccc(F)cc3)C2=O)cc1)C(N)=O
inhibition: 20.3%

# ---- query compound ----
Data request: Write down inhibition measured for item `CCCC[C@H](NC(=O)[C@H](CCCCN)NC(=O)[C@H](CCCNC(=N)N)NC(=O)CN1C(=O)/C(=C/c2ccc(OC)c(OC)c2)SC1=S)C(N)=O`
Data returned: 13.8%

* * *

target: Prothrombin (Homo sapiens); assay: Inhibition of thrombin (unknown origin) using Boc-Val-Pro-Arg-AMC as substrate at 25 uM after 10 mins by continuous fluorimetric assay
Active and inactive are the calls of the source. The calls are words filed in the database; no cut-off is given here.
Result type: inhibition

Answered cases to consult:
Smiles entry: CCCC[C@H](NC(=O)[C@H](CCCCN)NC(=O)[C@H](CCCNC(=N)N)NC(=O)c1ccc(/C=C2\SC(=S)N(c3ccccc3)C2=O)cc1)C(N)=O
Result type: inhibition
Observed: 14.2%
//
Smiles entry: CCCC[C@H](NC(=O)[C@H](CCCCN)NC(=O)[C@H](CCCNC(=N)N)NC(=O)c1cccs1)C(N)=O
Result type: inhibition
Observed: inactive
//
Smiles entry: CCCC[C@H](NC(=O)[C@H](CCCCN)NC(=O)[C@H](CCCNC(=N)N)NC(=O)c1ccc(/C=C2\SC(=S)N(CCOC(C)=O)C2=O)cc1)C(N)=O
Result type: inhibition
Observed: 22.8%
//
Smiles entry: CCCC[C@H](NC(=O)[C@H](CCCCN)NC(=O)[C@H](CCCNC(=N)N)NC(=O)c1ccc(/C=C/C(N)=O)cc1)C(N)=O
Result type: inhibition
Observed: inactive
//
Smiles entry: CCCC[C@H](NC(=O)[C@H](CCCCN)NC(=O)[C@H](CCCNC(=N)N)NC(=O)c1ccc(/C=C2\NC(=S)N(c3ccccc3)C2=O)cc1)C(N)=O
Result type: inhibition
Observed: 18%

Data request: Find inhibition for `CCCC[C@H](NC(=O)[C@H](CCCCN)NC(=O)[C@H](CCCNC(=N)N)NC(=O)c1ccc(/C=C2\SC(=O)N(CCO)C2=O)cc1)C(N)=O` on Prothrombin (Homo sapiens) and write it down.
Data returned: 11.8%

Data request: Find inhibition for `CCCC[C@H](NC(=O)[C@H](CCCC)NC(=O)[C@H](CCCNC(=N)N)NC(=O)c1ccc(/C=C2\SC(=O)N(Cc3ccccc3)C2=O)cc1)C(N)=O` on Prothrombin (Homo sapiens) and write it down.
Data returned: 8.3%

Data request: Find inhibition for `CCCC[C@H](NC(=O)[C@H](CCCCN)NC(=O)[C@H](CCCNC(=N)N)NC(=O)c1cccc(/C=C2\SC(=O)N(C3CCCC3)C2=O)c1)C(N)=O` on Prothrombin (Homo sapiens) and write it down.
Data returned: 13%

Data request: Find inhibition for `CCCC[C@H](NC(=O)[C@H](CCCCN)NC(=O)[C@H](CCCNC(=N)N)NC(=O)c1ccc(/C=C2\SC(=O)N(C(C)C)C2=O)cc1)C(N)=O` on Prothrombin (Homo sapiens) and write it down.
Data returned: 10.6%

Data request: Find inhibition for `CCCC[C@H](NC(=O)[C@H](CCCCN)NC(=O)[C@H](CCCNC(=N)N)NC(=O)c1ccc(/C=C2\SC(=S)N(c3ccc(Cl)cc3)C2=O)cc1)C(N)=O` on Prothrombin (Homo sapiens) and write it down.
Data returned: 11.1%

Data request: Find inhibition for `CCCC[C@H](NC(=O)[C@H](CCCCN)NC(=O)[C@H](CCCNC(=N)N)NC(=O)c1ccc(/C=C2\SC(=S)N(CC)C2=O)cc1)C(N)=O` on Prothrombin (Homo sapiens) and write it down.
Data returned: 13.6%

Data request: Find inhibition for `CCCC[C@H](NC(=O)[C@H](CCCCN)NC(=O)[C@H](CCCNC(=N)N)NC(=O)c1ccc(/C=C2\SC(=S)N(CCC)C2=O)cc1)C(N)=O` on Prothrombin (Homo sapiens) and write it down.
Data returned: 11%

Data request: Find inhibition for `CCCC[C@H](NC(=O)[C@H](CCCCN)NC(=O)[C@H](CCCNC(=N)N)NC(=O)c1ccc(/C=C2\SC(=O)N(CCCC)C2=O)cc1)C(N)=O` on Prothrombin (Homo sapiens) and write it down.
Data returned: 18.4%

Data request: Find inhibition for `CCCC[C@H](NC(=O)[C@H](CCCCN)NC(=O)[C@H](CCCNC(=N)N)NC(=O)c1ccc(/C=C2\SC(=S)N(CCc3ccccc3)C2=O)cc1)C(N)=O` on Prothrombin (Homo sapiens) and write it down.
Data returned: 6.2%

Data request: Find inhibition for `CCCC[C@H](NC(=O)[C@H](CCCCN)NC(=O)[C@H](CCCNC(=N)N)NC(=O)c1ccc(/C=C2\SC(=O)N(CCOC(C)=O)C2=O)cc1)C(N)=O` on Prothrombin (Homo sapiens) and write it down.
Data returned: 16.8%

Data request: Find inhibition for `CCCC[C@H](NC(=O)[C@H](CCCCN)NC(=O)[C@H](CCCCN)NC(=O)c1ccc(/C=C2\SC(=O)N(Cc3ccccc3)C2=O)cc1)C(N)=O` on Prothrombin (Homo sapiens) and write it down.
Data returned: 16.7%
